I'd be grateful if you could share measured IC50 for these entries.
- Test system: L1210
- procedure-text: Cytotoxicity against mouse L1210 cells
- Format: functional, cell-based
Give bare numbers, in µM.

Please review the entries below; each comes with its answer.
{"columns": ["smi", "IC50 / µM"],
 "data": [
  ["COC(=O)/C=C/C(=O)Nc1ccc([N+](=O)[O-])cc1", 6.2],
  ["Cc1ccc(NC(=O)/C=C/C(=O)O)cc1C", 466]
]}

Shifting focus to the compound that follows.
Kindly note the recorded IC50 for "COC(=O)/C=C\C(=O)Nc1ccc(C(C)=O)cc1" , which is 184

----------
- System: L1210
- procedure-text: Cytotoxicity against mouse L1210 cells
- Format: functional, cell-based
assay-metric: pIC50
One number for each entry, as −log10 of the molar value.

Please review the entries below; each comes with its answer.
{"columns": ["smi", "measured-target", "pIC50"],
 "data": [
  ["COC(=O)/C=C/C(=O)Nc1ccc(Cl)c(Cl)c1", "L1210", 6.43],
  ["Cc1ccc(/N=C2\\C=CC(=O)O2)cc1C", "L1210", 4.16],
  ["COC(=O)/C=C\\C(=O)Nc1ccc([N+](=O)[O-])cc1", "L1210", 3.68],
  ["COc1ccc(N2C(=O)CCC2=O)cc1", "L1210", 3.65],
  ["Cc1ccc(/N=C2\\C=CC(=O)O2)cc1", "L1210", 3.57]
]}

Below is a list of compounds. For each, state its recorded pIC50.
1. COC(=O)/C=C/C(=O)Nc1ccc(OC)cc1
2. COC(=O)/C=C\C(=O)Nc1ccc(Cl)cc1
3. O=C1CCC(=O)N1c1ccc(Cl)cc1
4. COC(=O)/C=C\C(=O)Nc1ccc(C)c(C)c1

Result:
1: 4.74; 2: 4.11; 3: 3.71; 4: 3.69

----------
- Test system: L1210
- procedure-text: Cytotoxicity against mouse L1210 cells
- Type: functional, cell-based
I'd be grateful if you could share measured IC50 for these entries.

Please review the entries below; each comes with its answer.
{"columns": ["smi", "IC50"],
 "data": [
  ["Cc1ccc(NC(=O)/C=C/C(=O)O)cc1", "> 500 µM"],
  ["O=C(O)/C=C/C(=O)Nc1ccccc1", "> 500 µM"],
  ["COc1ccc(/N=C2\\C=CC(=O)O2)cc1", "> 500 µM"]
]}

Shifting focus to the molecule that follows.
Record for "COC(=O)/C=C\C(=O)Nc1ccccc1" under target or system L1210: IC50 reported as > 500 µM
